Answer each item with its documented AC50.

Problem: Give the reported AC50 for CN1C(=O)COc2c(C(=O)NC3CN4CCC3CC4)cc(Cl)cc21 (centres undefined) (system: Melanocortin receptor 3 (Homo sapiens)). Further: assay procedure not described here.
Sequence (P41968 whole entry): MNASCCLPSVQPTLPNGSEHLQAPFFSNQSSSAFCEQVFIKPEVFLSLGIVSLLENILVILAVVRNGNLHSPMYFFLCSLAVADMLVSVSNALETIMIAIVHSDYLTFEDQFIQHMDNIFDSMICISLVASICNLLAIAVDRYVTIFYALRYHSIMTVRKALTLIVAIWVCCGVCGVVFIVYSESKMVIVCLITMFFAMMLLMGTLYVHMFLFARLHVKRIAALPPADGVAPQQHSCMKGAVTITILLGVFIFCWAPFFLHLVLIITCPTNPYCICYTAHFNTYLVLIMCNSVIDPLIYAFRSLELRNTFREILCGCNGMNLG
Result: > 30 µM

Problem: Give the reported AC50 for CC[C@]1(O)C[C@@H]2CN(CCc3c([nH]c4ccccc34)[C@@](C(=O)OC)(c3cc4c(cc3OC)N(C)[C@H]3[C@@](O)(C(N)=O)[C@H](O)[C@]5(CC)C=CCN6CC[C@]43[C@@H]65)C2)C1 (system: Melanocortin receptor 3 (Homo sapiens)). Further: assay procedure not described here.
Result: > 30 µM

Problem: Give the reported AC50 for Nc1ncnc2c1ncn2[C@@H]1O[C@H](COP(=O)(O)O)[C@@H](O)[C@H]1O [ADENOSINE PHOSPHATE] (system: Melanocortin receptor 3 (Homo sapiens)). Further: assay procedure not described here.
Result: > 30 µM

Problem: Give the reported AC50 for CCCCCOC(=O)Nc1nc(=O)n([C@@H]2O[C@H](C)[C@@H](O)[C@H]2O)cc1F (system: Melanocortin receptor 3 (Homo sapiens)). Further: assay procedure not described here.
Result: > 30 µM

Problem: Give the reported AC50 for C=C1CC[C@@]2(O)[C@H]3Cc4ccc(O)c5c4[C@@]2(CCN3CC2CC2)[C@H]1O5 (system: Melanocortin receptor 3 (Homo sapiens)). Further: assay procedure not described here.
Result: > 30 µM

Problem: Give the reported AC50 for O=C(C[S+]([O-])C(c1ccccc1)c1ccccc1)NO (centres undefined) (system: Melanocortin receptor 3 (Homo sapiens)). Further: assay procedure not described here.
Result: > 30 µM

Problem: Give the reported AC50 for C#C[C@]1(O)CC[C@H]2[C@@H]3CCC4=CCCC[C@@H]4[C@H]3CC[C@@]21C (system: Melanocortin receptor 3 (Homo sapiens)). Further: assay procedure not described here.
Result: > 30 µM

Problem: Give the reported AC50 for CC(C(O)c1ccc(O)cc1)N1CCC(Cc2ccccc2)CC1 (centres undefined) (system: Melanocortin receptor 3 (Homo sapiens)). Further: assay procedure not described here.
Result: > 30 µM

Problem: Give the reported AC50 for CC(C)(C(=O)c1cccnc1)c1cccnc1 (system: Melanocortin receptor 3 (Homo sapiens)). Further: assay procedure not described here.
Result: > 10 µM

Problem: Give the reported AC50 for CC(C)NCC(O)COc1ccc(COCCOC(C)C)cc1 (centres undefined) (system: Melanocortin receptor 3 (Homo sapiens)). Further: assay procedure not described here.
Result: > 30 µM

Problem: Give the reported AC50 for Nc1nc2ccc(OC(F)(F)F)cc2s1 (system: Melanocortin receptor 3 (Homo sapiens)). Further: assay procedure not described here.
Result: > 30 µM

Problem: Give the reported AC50 for C#CCN(C)[C@H](C)Cc1ccccc1 (system: Melanocortin receptor 3 (Homo sapiens)). Further: assay procedure not described here.
Result: > 10 µM

Problem: Give the reported AC50 for O=C1CCC(N2C(=O)c3ccccc3C2=O)C(=O)N1 (centres undefined) [THALIDOMIDE] (system: Melanocortin receptor 3 (Homo sapiens)). Further: assay procedure not described here.
Result: > 30 µM

Problem: Give the reported AC50 for CCCCOc1cc(C(=O)NCCN(CC)CC)c2ccccc2n1 (system: Melanocortin receptor 3 (Homo sapiens)). Further: assay procedure not described here.
Result: > 30 µM

Problem: Give the reported AC50 for CCCCCCCCOc1ccccc1C(=O)Nc1ccc(C(=O)OCC[N+](C)(CC)CC)cc1 [OTILONIUM BROMIDE] (system: Melanocortin receptor 3 (Homo sapiens)). Further: assay procedure not described here.
Result: 5.1 µM

Problem: Give the reported AC50 for CN1C(=O)CC(=O)N(c2ccccc2)c2cc(Cl)ccc21 (system: Melanocortin receptor 3 (Homo sapiens)). Further: assay procedure not described here.
Result: > 10 µM

Problem: Give the reported AC50 for C=C1C[C@@H]2[C@H](CC[C@]3(C)C(=O)CC[C@@H]23)[C@@]2(C)C=CC(=O)C=C12 (system: Melanocortin receptor 3 (Homo sapiens)). Further: assay procedure not described here.
Result: > 30 µM

Problem: Give the reported AC50 for C[C@H]1C[C@@H]2[C@H]([C@@H](O)C[C@@]3(C)[C@H]2CC[C@]3(O)C(=O)COC(=O)CCC(=O)O)[C@@]2(C)C=CC(=O)C=C12 [METHYLPREDNISOLONE HEMISUCCINATE] (system: Melanocortin receptor 3 (Homo sapiens)). Further: assay procedure not described here.
Result: > 30 µM

Problem: Give the reported AC50 for CCCC(=O)N1CCCN(c2nc(N)c3cc(OC)c(OC)cc3n2)CC1 (system: Melanocortin receptor 3 (Homo sapiens)). Further: assay procedure not described here.
Result: > 30 µM

Problem: Give the reported AC50 for NC(=O)C[S+]([O-])C(c1ccccc1)c1ccccc1 (centres undefined) (system: Melanocortin receptor 3 (Homo sapiens)). Further: assay procedure not described here.
Result: 21.2 µM

Problem: Give the reported AC50 for CS(=O)(=O)Nc1cc2occ(NC=O)c(=O)c2cc1Oc1ccccc1 (system: Melanocortin receptor 3 (Homo sapiens)). Further: assay procedure not described here.
Result: > 30 µM

Problem: Give the reported AC50 for COc1cc2c(cc1OC)C(=O)C(CC1CCN(Cc3ccccc3)CC1)C2 (centres undefined) (system: Melanocortin receptor 3 (Homo sapiens)). Further: assay procedure not described here.
Result: > 30 µM

Problem: Give the reported AC50 for O=C(Nc1ccccc1)OCC(CN1CCCCC1)OC(=O)Nc1ccccc1 (centres undefined) (system: Melanocortin receptor 3 (Homo sapiens)). Further: assay procedure not described here.
Result: > 30 µM

Problem: Give the reported AC50 for CCC(C(=O)O)c1ccc(CC(C)C)cc1 (centres undefined) (system: Melanocortin receptor 3 (Homo sapiens)). Further: assay procedure not described here.
Result: > 30 µM

// data source = ChEMBL document CHEMBL5291721
